target: Glucocorticoid receptor (Homo sapiens)

compound: COc1cccc2c1-c1ccc(NC(=O)c3ccccc3)cc1C(c1ccccc1)O2 (stereo unspecified)
IC50, µM: 0.404

* * *

biological target: Glucocorticoid receptor (Homo sapiens); test: Displacement of [3H]dexamethasone from human Glucocorticoid receptor (GR); Value ranges from 681-974 nM

compound: COc1ccccc1C1Oc2cccc(OC)c2-c2ccc(NS(C)(=O)=O)cc21 (stereo unspecified)
IC50: 812 nM

* * *

pIC50 overview
target: Glucocorticoid receptor (Homo sapiens, UniProt P04150); assay: Displacement of [3H]dexamethasone from human Glucocorticoid receptor (GR); Value ranges from 3-4 nM
pIC50: −log10 of the molar value.

compound: COc1cccc2c1-c1ccc(NS(C)(=O)=O)cc1C(c1ccc(Cl)c(Cl)c1)O2 (configuration not stated)
targetDesc: Glucocorticoid receptor (Homo sapiens, UniProt P04150)
pIC50: 8.52

compound: COc1cccc2c1-c1ccc(NS(C)(=O)=O)cc1C(c1cccc(F)c1)O2 (configuration not stated)
targetDesc: Glucocorticoid receptor (Homo sapiens, UniProt P04150)
pIC50: 8.52

* * *

Biological target: Glucocorticoid receptor (Homo sapiens, UniProt P04150)
Sequence (P04150 whole entry): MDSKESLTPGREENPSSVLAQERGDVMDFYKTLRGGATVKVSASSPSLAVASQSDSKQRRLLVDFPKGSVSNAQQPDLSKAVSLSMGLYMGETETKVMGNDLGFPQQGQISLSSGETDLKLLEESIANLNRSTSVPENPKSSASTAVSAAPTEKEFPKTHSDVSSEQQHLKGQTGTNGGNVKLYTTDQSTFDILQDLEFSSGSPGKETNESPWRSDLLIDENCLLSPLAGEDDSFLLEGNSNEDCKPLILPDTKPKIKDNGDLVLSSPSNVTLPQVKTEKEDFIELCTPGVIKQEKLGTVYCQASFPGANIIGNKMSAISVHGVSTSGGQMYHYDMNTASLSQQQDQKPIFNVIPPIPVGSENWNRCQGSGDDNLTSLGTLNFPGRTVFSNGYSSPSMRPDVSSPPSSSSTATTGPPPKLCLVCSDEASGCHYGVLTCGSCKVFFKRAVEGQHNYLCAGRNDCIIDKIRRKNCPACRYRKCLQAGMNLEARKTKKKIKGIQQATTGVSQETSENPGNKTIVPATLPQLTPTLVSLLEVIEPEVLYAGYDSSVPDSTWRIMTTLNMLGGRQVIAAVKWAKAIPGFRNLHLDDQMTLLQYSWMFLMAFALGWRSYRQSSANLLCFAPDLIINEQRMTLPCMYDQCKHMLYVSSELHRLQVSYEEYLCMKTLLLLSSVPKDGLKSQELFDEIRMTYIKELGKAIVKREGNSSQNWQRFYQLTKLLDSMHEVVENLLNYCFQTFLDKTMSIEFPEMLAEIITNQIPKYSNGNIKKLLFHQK
Assay: Effect on human Glucocorticoid receptor (GR) in a whole cell assay to measure functional cellular GR-antagonism (GRAF)

compound: CCOc1cccc2c1-c1ccc(NS(C)(=O)=O)cc1C(c1ccccc1)O2 (stereo not given)
targetDesc: Glucocorticoid receptor (Homo sapiens, UniProt P04150)
unitsOfMeasure: nM
IC50: 308
//
compound: CCS(=O)(=O)Nc1ccc2c(c1)C(c1ccccc1)Oc1cccc(OC)c1-2 (stereo not given)
targetDesc: Glucocorticoid receptor (Homo sapiens, UniProt P04150)
unitsOfMeasure: nM
IC50: 251
//
compound: COc1cccc2c1-c1ccc(N(C)S(C)(=O)=O)cc1C(c1ccccc1)O2 (stereo not given)
targetDesc: Glucocorticoid receptor (Homo sapiens, UniProt P04150)
unitsOfMeasure: nM
IC50: 210
//
compound: COc1cccc2c1-c1ccc(NC(=O)c3ccccc3)cc1C(c1ccccc1)O2 (stereo not given)
targetDesc: Glucocorticoid receptor (Homo sapiens, UniProt P04150)
unitsOfMeasure: nM
IC50: 289
//
compound: CCOC(=O)c1cccc(C2Oc3cccc(OC)c3-c3ccc(NS(C)(=O)=O)cc32)c1 (stereo not given)
targetDesc: Glucocorticoid receptor (Homo sapiens, UniProt P04150)
unitsOfMeasure: nM
IC50: 296
//
compound: COc1cccc2c1-c1ccccc1C(c1ccccc1)O2 (stereo not given)
targetDesc: Glucocorticoid receptor (Homo sapiens, UniProt P04150)
unitsOfMeasure: nM
IC50: 1910
//
compound: COc1cccc2c1-c1ccc(NS(C)(=O)=O)cc1C(c1ccccc1)O2 (stereo not given)
targetDesc: Glucocorticoid receptor (Homo sapiens, UniProt P04150)
unitsOfMeasure: nM
IC50: 87
//
compound: COc1cccc2c1-c1ccc(NS(C)(=O)=O)cc1C(c1ccc(Cl)cc1)O2 (stereo not given)
targetDesc: Glucocorticoid receptor (Homo sapiens, UniProt P04150)
unitsOfMeasure: nM
IC50: 129
//
compound: COc1cccc2c1-c1ccc(N)cc1C(c1ccccc1)O2 (stereo not given)
targetDesc: Glucocorticoid receptor (Homo sapiens, UniProt P04150)
unitsOfMeasure: nM
IC50: 2020
//
compound: COc1cccc2c1-c1ccc(NS(C)(=O)=O)cc1C(c1cccc(Oc3ccccc3)c1)O2 (stereo not given)
targetDesc: Glucocorticoid receptor (Homo sapiens, UniProt P04150)
unitsOfMeasure: nM
IC50: 434

* * *

# collection of pIC50 values tested on UniProt P10275
# Sequence (P10275 whole entry): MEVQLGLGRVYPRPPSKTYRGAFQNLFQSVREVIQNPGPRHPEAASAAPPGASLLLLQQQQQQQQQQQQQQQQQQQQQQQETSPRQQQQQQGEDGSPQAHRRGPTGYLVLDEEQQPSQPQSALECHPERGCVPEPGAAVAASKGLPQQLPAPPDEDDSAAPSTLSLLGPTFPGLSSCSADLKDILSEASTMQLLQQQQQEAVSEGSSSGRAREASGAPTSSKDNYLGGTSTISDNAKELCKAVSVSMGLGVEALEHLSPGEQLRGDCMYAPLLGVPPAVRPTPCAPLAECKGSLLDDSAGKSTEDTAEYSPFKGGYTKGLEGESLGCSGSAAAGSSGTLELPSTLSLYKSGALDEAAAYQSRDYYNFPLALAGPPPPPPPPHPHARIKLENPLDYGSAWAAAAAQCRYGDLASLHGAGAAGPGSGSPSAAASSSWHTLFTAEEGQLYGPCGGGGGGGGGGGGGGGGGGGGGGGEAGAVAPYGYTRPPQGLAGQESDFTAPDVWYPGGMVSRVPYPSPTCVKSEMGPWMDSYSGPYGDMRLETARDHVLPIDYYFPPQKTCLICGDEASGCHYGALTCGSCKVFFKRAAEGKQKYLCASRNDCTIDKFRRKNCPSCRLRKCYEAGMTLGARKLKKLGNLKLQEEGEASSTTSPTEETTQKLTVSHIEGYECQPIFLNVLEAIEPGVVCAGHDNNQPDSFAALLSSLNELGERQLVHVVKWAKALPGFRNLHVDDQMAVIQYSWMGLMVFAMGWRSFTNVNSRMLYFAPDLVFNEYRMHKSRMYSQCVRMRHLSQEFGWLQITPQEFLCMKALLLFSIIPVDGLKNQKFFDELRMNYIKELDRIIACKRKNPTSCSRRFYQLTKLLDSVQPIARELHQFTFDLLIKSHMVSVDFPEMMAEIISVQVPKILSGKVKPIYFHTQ
pIC50: −log10 of the molar value.

molecule: CCOc1cccc2c1-c1ccc(NS(C)(=O)=O)cc1C(c1ccccc1)O2 (stereo unspecified)
pIC50: < 5.00
//
molecule: COc1cccc2c1-c1ccc(NS(C)(=O)=O)cc1C(c1cccs1)O2 (stereo unspecified)
pIC50: < 5.00
//
molecule: COc1cccc2c1-c1ccc(NS(C)(=O)=O)cc1C(c1cc(C)cc(C)c1)O2 (stereo unspecified)
pIC50: < 5.00
//
molecule: CS(=O)(=O)Nc1ccc2c(c1)C(c1ccccc1)Oc1cccc(OC(F)F)c1-2 (stereo unspecified)
pIC50: 5.06
//
molecule: COc1cccc2c1-c1ccc(NS(C)(=O)=O)cc1C(c1ccccc1)O2 (stereo unspecified)
pIC50: 5.19
//
molecule: COc1cccc2c1-c1ccc(NS(C)(=O)=O)cc1C(c1cccc(Cl)c1)O2 (stereo unspecified)
pIC50: < 5.00

* * *

target: Glucocorticoid receptor (Homo sapiens, UniProt P04150)
pIC50: −log10 of the molar value.
measureName: pIC50

molecule: CCOc1ccc(CC2Oc3cccc(OC)c3-c3ccc(NS(C)(=O)=O)cc32)cc1 (stereo unspecified)
measuredNumber: 6.26

* * *

target: Glucocorticoid receptor (Homo sapiens)
pIC50: −log10 of the molar value.
measureName: pIC50

compound: COc1cccc2c1-c1ccc(NS(C)(=O)=O)cc1C(c1cccs1)O2 (stereo unspecified)
measuredNumber: 8.15

* * *

biological target: Glucocorticoid receptor (Homo sapiens); experiment: Displacement of [3H]dexamethasone from human Glucocorticoid receptor (GR); Value ranges from 3-3 nM

compound: COc1cccc2c1-c1ccc(NS(C)(=O)=O)cc1C(c1cccc(Cl)c1)O2 (stereo unspecified)
IC50 / nM: 3

* * *

target: Glucocorticoid receptor (Homo sapiens); assay: Displacement of [3H]dexamethasone from human Glucocorticoid receptor (GR); Value ranges from 2-2 nM
pIC50: −log10 of the molar value.
measureName: pIC50

compound: CS(=O)(=O)Nc1ccc2c(c1)C(c1ccccc1)Oc1cccc(OC(F)F)c1-2 (stereo unspecified)
measureName: pIC50
measuredNumber: 8.70

* * *

target: Glucocorticoid receptor (Homo sapiens, UniProt P04150); assay: Displacement of [3H]dexamethasone from human Glucocorticoid receptor (GR); […]
pIC50: −log10 of the molar value.
pIC50 values by entry

molecule: CCS(=O)(=O)Nc1ccc2c(c1)C(c1ccccc1)Oc1cccc(OC)c1-2 (centres undefined)
pIC50: 7.21
//
molecule: COc1cccc2c1-c1ccc(NS(C)(=O)=O)cc1C(c1ccccc1)O2 (centres undefined)
pIC50: 7.72
//
molecule: COc1cccc2c1-c1ccc(NS(C)(=O)=O)cc1C(c1ccc(F)cc1)O2 (centres undefined)
pIC50: 7.54
//
molecule: COc1cccc2c1-c1ccc(NS(C)(=O)=O)cc1C(C1CCCCC1)O2 (centres undefined)
pIC50: 7.33

* * *

target: Progesterone receptor (Homo sapiens)
Sequence (P06401 whole entry): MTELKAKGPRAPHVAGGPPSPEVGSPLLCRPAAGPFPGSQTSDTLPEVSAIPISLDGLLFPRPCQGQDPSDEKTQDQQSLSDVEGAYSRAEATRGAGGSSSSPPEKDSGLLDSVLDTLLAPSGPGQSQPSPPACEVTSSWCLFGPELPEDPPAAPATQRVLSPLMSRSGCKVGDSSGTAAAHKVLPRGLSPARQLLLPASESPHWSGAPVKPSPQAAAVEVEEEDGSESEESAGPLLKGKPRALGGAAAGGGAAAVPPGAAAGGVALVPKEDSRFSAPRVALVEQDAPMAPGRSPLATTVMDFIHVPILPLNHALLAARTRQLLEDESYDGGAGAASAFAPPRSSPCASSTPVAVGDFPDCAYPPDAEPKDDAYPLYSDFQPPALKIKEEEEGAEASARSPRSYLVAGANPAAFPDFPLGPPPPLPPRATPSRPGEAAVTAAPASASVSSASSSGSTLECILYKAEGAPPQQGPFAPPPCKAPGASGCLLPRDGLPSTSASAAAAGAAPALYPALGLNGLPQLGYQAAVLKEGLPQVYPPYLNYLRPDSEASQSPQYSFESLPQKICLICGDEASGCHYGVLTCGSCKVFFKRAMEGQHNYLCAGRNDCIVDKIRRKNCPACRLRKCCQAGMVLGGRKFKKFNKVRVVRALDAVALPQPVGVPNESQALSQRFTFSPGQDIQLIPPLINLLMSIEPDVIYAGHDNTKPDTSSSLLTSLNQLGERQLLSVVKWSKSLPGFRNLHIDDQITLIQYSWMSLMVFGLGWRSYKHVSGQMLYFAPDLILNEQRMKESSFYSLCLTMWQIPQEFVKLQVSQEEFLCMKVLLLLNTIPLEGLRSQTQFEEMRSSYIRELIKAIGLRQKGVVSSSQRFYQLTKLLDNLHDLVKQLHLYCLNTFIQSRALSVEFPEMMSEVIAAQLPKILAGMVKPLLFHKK
Each record here notes measured IC50.

molecule: COc1cccc2c1-c1ccc(NS(C)(=O)=O)c(Br)c1C(c1ccccc1)O2 (centres undefined)
unitsOfMeasure: µM
IC50: 10

molecule: COc1cccc2c1-c1ccc(NS(C)(=O)=O)cc1C(c1cccs1)O2 (centres undefined)
unitsOfMeasure: µM
IC50: 0.45

molecule: CCOc1cccc2c1-c1ccc(NS(C)(=O)=O)cc1C(c1ccccc1)O2 (centres undefined)
unitsOfMeasure: µM
IC50: 6.9

molecule: COc1cccc2c1-c1ccc(NS(C)(=O)=O)cc1C(c1ccc(C)cc1)O2 (centres undefined)
unitsOfMeasure: µM
IC50: 0.673

* * *

molecular target: Glucocorticoid receptor (Homo sapiens, UniProt P04150); test: Effect on human Glucocorticoid receptor (GR) in a whole cell assay to measure functional cellular GR-antagonism (GRAF)
Property: IC50; scope: individual compounds
measureName: IC50 (nM)

compound: CCNc1ccc2c(c1)C(c1ccccc1)Oc1cccc(OC)c1-2 (configuration not stated)
measureName: IC50
measuredNumber: 382

compound: COc1cccc2c1-c1ccc(NS(C)(=O)=O)cc1C(c1ccsc1)O2 (configuration not stated)
measureName: IC50
measuredNumber: 43

compound: COc1cccc2c1-c1ccc(NC(C)=O)cc1C(c1ccccc1)O2 (configuration not stated)
measureName: IC50
measuredNumber: 69

compound: COc1cccc2c1-c1ccc(NCc3ccccc3)cc1C(c1ccccc1)O2 (configuration not stated)
measureName: IC50
measuredNumber: 402

compound: COc1cccc2c1-c1ccc(NS(=O)(=O)c3cccs3)cc1C(c1ccccc1)O2 (configuration not stated)
measureName: IC50
measuredNumber: 93

compound: CCC(=O)Nc1ccc2c(c1)C(c1ccccc1)Oc1cccc(OC)c1-2 (configuration not stated)
measureName: IC50
measuredNumber: 124

compound: COc1cccc(C2Oc3cccc(OC)c3-c3ccc(NS(C)(=O)=O)cc32)c1 (configuration not stated)
measureName: IC50
measuredNumber: 122

compound: COc1cccc2c1-c1ccc(NS(=O)(=O)c3ccccc3)cc1C(c1ccccc1)O2 (configuration not stated)
measureName: IC50
measuredNumber: 137

compound: COc1cccc2c1-c1ccc(NS(C)(=O)=O)cc1C(c1cccc(Cl)c1)O2 (configuration not stated)
measureName: IC50
measuredNumber: 147

compound: COc1cccc2c1-c1ccc(NS(C)(=O)=O)cc1C(c1cccc(F)c1)O2 (configuration not stated)
measureName: IC50
measuredNumber: 76

compound: CCOC(=O)c1ccc(C2Oc3cccc(OC)c3-c3ccc(NS(C)(=O)=O)cc32)cc1 (configuration not stated)
measureName: IC50
measuredNumber: 388

compound: COc1cccc2c1-c1ccc(NS(C)(=O)=O)cc1C(c1cccs1)O2 (configuration not stated)
measureName: IC50
measuredNumber: 66

compound: COc1cccc2c1-c1ccc(NS(C)(=O)=O)cc1C(c1ccc(Cl)c(Cl)c1)O2 (configuration not stated)
measureName: IC50
measuredNumber: 378

compound: CS(=O)(=O)Nc1ccc2c(c1)C(c1ccccc1)Oc1cccc(OC(F)F)c1-2 (configuration not stated)
measureName: IC50
measuredNumber: 57

compound: COc1cccc2c1-c1ccc(NS(C)(=O)=O)c(Br)c1C(c1ccccc1)O2 (configuration not stated)
measureName: IC50
measuredNumber: 430

compound: COc1cccc2c1-c1ccc(NS(C)(=O)=O)cc1C(C1CCCCC1)O2 (configuration not stated)
measureName: IC50
measuredNumber: 630

compound: COc1cccc2c1-c1ccc(NS(C)(=O)=O)cc1C(c1cc(C)cc(C)c1)O2 (configuration not stated)
measureName: IC50
measuredNumber: 78

compound: CNc1cccc(C2Oc3cccc(OC)c3-c3ccc(NS(C)(=O)=O)cc32)c1 (configuration not stated)
measureName: IC50
measuredNumber: 180

compound: COc1cccc2c1-c1ccc(NS(C)(=O)=O)cc1C(c1ccc(Oc3ccccc3)cc1)O2 (configuration not stated)
measureName: IC50
measuredNumber: 847

compound: COc1cccc2c1-c1ccc(NS(=O)(=O)N(C)C)cc1C(c1ccccc1)O2 (configuration not stated)
measureName: IC50
measuredNumber: 121

compound: COc1cccc2c1-c1ccc(NS(C)(=O)=O)cc1C(c1cccc(C)c1)O2 (configuration not stated)
measureName: IC50
measuredNumber: 21

compound: COc1ccccc1C1Oc2cccc(OC)c2-c2ccc(NS(C)(=O)=O)cc21 (configuration not stated)
measureName: IC50
measuredNumber: 665

Data origin: ChEMBL document CHEMBL1147539
